The reported numbers originate from ChEMBL document CHEMBL3244414.

Recorded MIC values for a group of molecules are listed next.
- Test system: Klebsiella pneumoniae
- experiment_notes: Antimicrobial activity against Klebsiella pneumoniae ATCC 10031 by agar dilution method
- Assay type: functional
- condition_notes: Klebsiella pneumoniae, ATCC 10031; read-out: MIC
Could you give me the number in µg/mL? Just the number is fine.

molecule | u | MIC
CO[C@H]1C(O)CC(=O)O[C@H](C)C/C=C/C=C/[C@H](OC(C)=O)[C@H](C)C[C@H](CC=O)[C@@H]1O[C@@H]1O[C@H](C)[C@@H](O[C@H]2C[C@@](C)(O)[C@@H](O)[C@H](C)O2)[C@H](N(C)C)[C@H]1O (single isomer, unassigned) | µg/mL | 100

MIC lookup needed for CO[C@@H]1[C@@H](O[C@@H]2O[C@H](C)[C@@H](O[C@H]3C[C@@](C)(O)[C@@H](OC(C)=O)[C@H](C)O3)[C@H](N(C)C)[C@H]2O)[C@@H](CC=O)C[C@@H](C)[C@@H](OC(C)=O)/C=C/C=C/C[C@@H](C)OC(=O)C[C@H]1O , thanks.
50

====

Recorded IC50 values for a group of compounds are listed next.
- target_of_assay: Bacterial 70S ribosome
- experiment_notes: Displacement of [14C]erythromycin from Escherichia coli ribosomes after 30 mins by scintillation spectrometer analysis
Could you give me the number in µM? Just the number is fine.

In the examples that follow, each entry is paired with its recorded IC50.
chemical_structure | target_of_assay | u | observed_result
CO[C@@H]1[C@@H](O[C@@H]2O[C@H](C)[C@@H](O[C@H]3C[C@@](C)(O)[C@@H](O)[C@H](C)O3)[C@H](N(C)C)[C@H]2O)[C@@H](CC=O)C[C@@H](C)[C@@H](O)/C=C/C=C/C[C@@H](C)OC(=O)C[C@H]1OC(C)=O | Bacterial 70S ribosome | µM | 10.7
CCCC(=O)O[C@H]1/C=C/C=C/C[C@@H](C)OC(=O)C[C@@H](O)[C@H](OC)[C@@H](O[C@@H]2O[C@H](C)[C@@H](O[C@H]3C[C@@](C)(O)[C@@H](OC(=O)CCC)[C@H](C)O3)[C@H](N(C)C)[C@H]2O)[C@@H](CC=O)C[C@H]1C | Bacterial 70S ribosome | µM | 0.9
CCCC(=O)O[C@H]1[C@H](C)O[C@@H](O[C@H]2[C@H](N(C)C)[C@@H](OC(=O)CCC(=O)O)[C@H](O[C@H]3[C@@H](CC=O)C[C@@H](C)[C@@H](OC(=O)CCC(=O)O)/C=C/C=C/C[C@@H](C)OC(=O)C[C@@H](O)[C@@H]3OC)O[C@@H]2C)C[C@@]1(C)O | Bacterial 70S ribosome | µM | 2.8

IC50 lookup needed for CO[C@@H]1[C@@H](O[C@@H]2O[C@H](C)[C@@H](O[C@H]3C[C@@](C)(O)[C@@H](O)[C@H](C)O3)[C@H](N(C)C)[C@H]2O)[C@@H](CC=O)C[C@@H](C)[C@@H](OC(C)=O)/C=C/C=C/C[C@@H](C)OC(=O)C[C@H]1OC(C)=O , thanks.
6.3

====

- target_of_assay: Bacterial 70S ribosome (Bacteria) (UniProt P0A7V0+P60723+P0AG67+P0A7R5+P0A7R9+P0A7S3+P0A7S9+P0AG59+P0ADZ4+P0A7T3+P0AG63+P0A7T7+P0A7U3+P0A7U7+P68679+P0A7V3+P0A7V8+P0A7W1+P02358+P02359+P0A7W7+P0A7X3+P0A7J3+P0A7J7+P0AA10+P0ADY3+P02413+P0ADY7+P0AG44+P0C018+P0A7K6+P0A7L0+P0A7L3+P0AG48+P61175+P0ADZ0+P60624+P68919+P0A7L8+P0A7M2+P0A7M6+P60422+P0AG51+P0A7N1+P0A7M9+P0A7N4+P0A7N9+P0A7P5+P0A7Q1+Q2EEQ2+P0A7Q6+P60438+P62399+P0AG55+P0A7K2)
- experiment_notes: Displacement of [14C]erythromycin from Escherichia coli ribosomes after 30 mins by scintillation spectrometer analysis
measurement_name: pK50
# respond with the number and nothing more

In the examples that follow, each entry is paired with its recorded pK50.
compound | pK50
CCCC(=O)O[C@H]1[C@H](C)O[C@@H](O[C@H]2[C@H](N(C)C)[C@@H](OC(C)=O)[C@H](O[C@H]3[C@@H](CC=O)C[C@@H](C)[C@@H](O)/C=C/C=C/C[C@@H](C)OC(=O)C[C@@H](O)[C@@H]3OC)O[C@@H]2C)C[C@@]1(C)O | 4.8
CO[C@@H]1[C@@H](O[C@@H]2O[C@H](C)[C@@H](O[C@H]3C[C@@](C)(O)[C@@H](OC(=O)CC(C)C)[C@H](C)O3)[C@H](N(C)C)[C@H]2O)[C@@H](CC=O)C[C@@H](C)[C@@H](OC(=O)C(Cl)Cl)/C=C/C=C/C[C@@H](C)OC(=O)C[C@H]1OC(C)=O | 5.9
CO[C@@H]1[C@@H](O[C@@H]2O[C@H](C)[C@@H](O[C@H]3C[C@@](C)(O)[C@@H](OC(=O)CC(C)C)[C@H](C)O3)[C@H](N(C)C)[C@H]2O)[C@@H](CC=O)C[C@@H](C)[C@@H](O)/C=C/C=C/C[C@@H](C)OC(=O)C[C@H]1OC(C)=O | 5.9
CO[C@H]1C(O)CC(=O)O[C@H](C)C/C=C/C=C/[C@H](OC(C)=O)[C@H](C)C[C@H](CC=O)[C@@H]1O[C@@H]1O[C@H](C)[C@@H](O[C@H]2C[C@@](C)(O)[C@@H](O)[C@H](C)O2)[C@H](N(C)C)[C@H]1O (single isomer, unassigned) | 5.6
CCCC(=O)O[C@H]1/C=C/C=C/C[C@@H](C)OC(=O)C[C@@H](O)[C@H](OC)[C@@H](O[C@@H]2O[C@H](C)[C@@H](O[C@H]3C[C@@](C)(O)[C@@H](OC(=O)CCC)[C@H](C)O3)[C@H](N(C)C)[C@H]2O)[C@@H](CC=O)C[C@H]1C | 6
CCCC(=O)O[C@H]1[C@H](C)O[C@@H](O[C@H]2[C@H](N(C)C)[C@@H](OC(C)=O)[C@H](O[C@H]3[C@@H](CC=O)C[C@@H](C)[C@@H](OC(C)=O)/C=C/C=C/C[C@@H](C)OC(=O)C[C@@H](OC(C)=O)[C@@H]3OC)O[C@@H]2C)C[C@@]1(C)O | 4.5
CCCC(=O)O[C@H]1[C@H](C)O[C@@H](O[C@H]2[C@H](N(C)C)[C@@H](O)[C@H](O[C@H]3[C@@H](CC=O)C[C@@H](C)[C@@H](O)/C=C/C=C/C[C@@H](C)OC(=O)C[C@@H](O)[C@@H]3OC)O[C@@H]2C)C[C@@]1(C)O | 6

In the following, a different compound is considered.
pK50 lookup needed for CO[C@@H]1[C@@H](O[C@@H]2O[C@H](C)[C@@H](O[C@H]3C[C@@](C)(O)[C@@H](O)[C@H](C)O3)[C@H](N(C)C)[C@H]2O)[C@@H](CC=O)C[C@@H](C)[C@@H](O)/C=C/C=C/C[C@@H](C)OC(=O)C[C@H]1OC(C)=O , thanks.
5

====

- Test system: Klebsiella pneumoniae
- experiment_notes: Antimicrobial activity against Klebsiella pneumoniae ATCC 10031 by agar dilution method
- Assay type: functional
- condition_notes: Klebsiella pneumoniae, ATCC 10031; read-out: MIC
measurement_name: MIC

chemical_structure | MIC
CO[C@@H]1[C@@H](O[C@@H]2O[C@H](C)[C@@H](O[C@H]3C[C@@](C)(O)[C@@H](OC(=O)CC(C)C)[C@H](C)O3)[C@H](N(C)C)[C@H]2OC(=O)CCC(=O)O)[C@@H](CC=O)C[C@@H](C)[C@@H](O)/C=C/C=C/C[C@@H](C)OC(=O)C[C@H]1OC(C)=O | 25 µg/mL

In the following, a different compound is considered.
MIC lookup needed for CO[C@@H]1[C@@H](O[C@@H]2O[C@H](C)[C@@H](O[C@H]3C[C@@](C)(O)[C@@H](OC(=O)CC(C)C)[C@H](C)O3)[C@H](N(C)C)[C@H]2OC(C)=O)[C@@H](CC=O)C[C@@H](C)[C@@H](O)/C=C/C=C/C[C@@H](C)OC(=O)C[C@H]1OC(C)=O , thanks.
25 µg/mL

====

- target_of_assay: Bacterial 70S ribosome (Bacteria) (UniProt P0A7V0+P60723+P0AG67+P0A7R5+P0A7R9+P0A7S3+P0A7S9+P0AG59+P0ADZ4+P0A7T3+P0AG63+P0A7T7+P0A7U3+P0A7U7+P68679+P0A7V3+P0A7V8+P0A7W1+P02358+P02359+P0A7W7+P0A7X3+P0A7J3+P0A7J7+P0AA10+P0ADY3+P02413+P0ADY7+P0AG44+P0C018+P0A7K6+P0A7L0+P0A7L3+P0AG48+P61175+P0ADZ0+P60624+P68919+P0A7L8+P0A7M2+P0A7M6+P60422+P0AG51+P0A7N1+P0A7M9+P0A7N4+P0A7N9+P0A7P5+P0A7Q1+Q2EEQ2+P0A7Q6+P60438+P62399+P0AG55+P0A7K2)
- experiment_notes: Displacement of [14C]erythromycin from Escherichia coli ribosomes after 30 mins by scintillation spectrometer analysis
Recorded pK50 values for a group of molecules are listed next.
# respond with the number and nothing more

molecule | measurement_name | observed_result
CCC(=O)O[C@H]1/C=C/C=C/C[C@@H](C)OC(=O)C[C@@H](O)[C@H](OC)[C@@H](O[C@@H]2O[C@H](C)[C@@H](O[C@H]3C[C@@](C)(O)[C@@H](O)[C@H](C)O3)[C@H](N(C)C)[C@H]2O)[C@@H](CC=O)C[C@H]1C | pK50 | 5.4
CCCC(=O)O[C@H]1[C@H](C)O[C@@H](O[C@H]2[C@H](N(C)C)[C@@H](O)[C@H](O[C@H]3[C@@H](CC=O)C[C@@H](C)[C@@H](OC(C)=O)/C=C/C=C/C[C@@H](C)OC(=O)C[C@@H](OC(C)=O)[C@@H]3OC)O[C@@H]2C)C[C@@]1(C)O | pK50 | 5.7
CCCC(=O)O[C@H]1[C@H](C)O[C@@H](O[C@H]2[C@H](N(C)C)[C@@H](OC(=O)CCCC(=O)O)[C@H](O[C@H]3[C@@H](CC=O)C[C@@H](C)[C@@H](O)/C=C/C=C/C[C@@H](C)OC(=O)C[C@@H](O)[C@@H]3OC)O[C@@H]2C)C[C@@]1(C)O | pK50 | 5
CO[C@@H]1[C@@H](O[C@@H]2O[C@H](C)[C@@H](O[C@H]3C[C@@](C)(O)[C@@H](OC(=O)CC(C)C)[C@H](C)O3)[C@H](N(C)C)[C@H]2O)[C@@H](CC=O)C[C@@H](C)[C@@H](OC(=O)C(C)C)/C=C/C=C/C[C@@H](C)OC(=O)C[C@H]1OC(C)=O | pK50 | 5.7
CCCC(=O)O[C@H]1[C@H](C)O[C@@H](O[C@H]2[C@H](N(C)C)[C@@H](OC(=O)CC)[C@H](O[C@H]3[C@@H](CC=O)C[C@@H](C)[C@@H](O)/C=C/C=C/C[C@@H](C)OC(=O)C[C@@H](OC(C)=O)[C@@H]3OC)O[C@@H]2C)C[C@@]1(C)O | pK50 | 4.8
CC[C@H]1OC(=O)[C@H](C)[C@@H](O[C@H]2C[C@@](C)(OC)[C@@H](O)[C@H](C)O2)[C@H](C)[C@@H](O[C@@H]2O[C@H](C)C[C@H](N(C)C)[C@H]2O)[C@](C)(O)C[C@@H](C)C(=O)[C@H](C)[C@@H](O)[C@]1(C)O | pK50 | 6.1
CCC(=O)O[C@H]1/C=C/C=C/C[C@@H](C)OC(=O)C[C@@H](OC(C)=O)[C@H](OC)[C@@H](O[C@@H]2O[C@H](C)[C@@H](O[C@H]3C[C@@](C)(O)[C@@H](OC(=O)CC(C)C)[C@H](C)O3)[C@H](N(C)C)[C@H]2O)[C@@H](CC=O)C[C@H]1C | pK50 | 5.7
CO[C@@H]1[C@@H](O[C@@H]2O[C@H](C)[C@@H](O[C@H]3C[C@@](C)(O)[C@@H](OC(=O)CC(C)C)[C@H](C)O3)[C@H](N(C)C)[C@H]2O)[C@@H](CC=O)C[C@@H](C)[C@@H](OC(=O)CCC(=O)O)/C=C/C=C/C[C@@H](C)OC(=O)C[C@H]1OC(C)=O | pK50 | 5.5

In the following, a different molecule is considered.
pK50 lookup needed for CCC(=O)O[C@H]1/C=C/C=C/C[C@@H](C)OC(=O)C[C@@H](O)[C@H](OC)[C@@H](O[C@@H]2O[C@H](C)[C@@H](O[C@H]3C[C@@](C)(O)[C@@H](OC(=O)C(C)CC)[C@H](C)O3)[C@H](N(C)C)[C@H]2O)[C@@H](CC=O)C[C@H]1C (some centres undefined) , thanks.
5.8
